Hello, the source for this data is patent US4994488A, in case you need it.

# System: Tobacco Budworm [Heliothis virescens (Fabricius)], larvae
# protocol-text: Tobacco budworm contact test, larvae (TBW-C)
# Format: in vivo
# recorded-conditions: percent of test compound in solution; second-instar larvae; 5 days
quantity-name: LC50 TBW C (contact)
Quote the value and follow it with the unit of measurement.

{"compound": "Fc1ccc(N=C(OCc2cccc(Oc3ccccc3)c2)C2CC2)cc1 [Compound 5]", "LC50 TBW C (contact)": "0.01%"}
{"compound": "CC1(C(=Nc2ccc(Cl)cc2)OCc2cccc(Oc3ccccc3)c2)CC1 [Compound 1]", "LC50 TBW C (contact)": "0.008%"}
{"compound": "FC(F)(F)c1ccc(N=C(OCc2cccc(Oc3ccccc3)c2)C2CC2)c(Cl)c1 [Compound 8]", "LC50 TBW C (contact)": "0.1%"}
{"compound": "FC(F)(F)c1ccc(N=C(OCc2cccc(Oc3ccccc3)c2)C2CC2)cc1 [Compound 6]", "LC50 TBW C (contact)": "0.0015%"}
{"compound": "Clc1ccc(N=C(OCc2cccc(Oc3ccccc3)c2)C2CC2)cc1 [Compound 4]", "LC50 TBW C (contact)": "0.006%"}

Could you now look at the following compound, please?
stdin: Please report the recorded LC50 TBW C (contact) for FC(F)(F)Oc1ccc(N=C(OCc2cccc(Oc3ccccc3)c2)C2CC2)cc1 [Compound 7] .
stdout: 0.001%

---

# System: two-spotted mite [Tetranychus urticae (Koch)], eggs
# protocol-text: Two-spotted mite acaricidal test, eggs (2SM-E)
# Type: in vivo
# recorded-conditions: percent of test compound in solution; nymphs hatching from eggs; 5-7 days
quantity-name: LC50 2-SM E (eggs) (%)
Respond numerically; units are % and should not be typed.

Worked cases, LC50 2-SM E (eggs) given:
{"molecule": "CC(C)(C)c1ccc(N=C(OCc2cccc(Oc3ccc(F)cc3)c2)C2CC2)cc1 [Compound 14]", "LC50 2-SM E (eggs) (%)": 0.02}
{"molecule": "CC1(C)C(C(=Nc2ccc(F)c(Cl)c2)OCc2cccc(Oc3ccccc3)c2)C1(C)C [Compound 12]", "LC50 2-SM E (eggs) (%)": 0.05}
{"molecule": "Clc1ccc(N=C(OCc2cccc(Oc3ccccc3)c2)C2CC2)cc1 [Compound 4]", "LC50 2-SM E (eggs) (%)": 0.05}
{"molecule": "Fc1ccc(N=C(OCc2cccc(Oc3ccccc3)c2)C2CC2)cc1 [Compound 5]", "LC50 2-SM E (eggs) (%)": 0.05}

Could you now look at the following molecule, please?
stdin: Please report the recorded LC50 2-SM E (eggs) for FC(F)(F)Oc1ccc(N=C(OCc2cccc(Oc3ccccc3)c2)C2CC2)cc1 [Compound 7] .
stdout: 0.01
